Experiment: basal RPMI8226 mitochondrial membrane potential changes, profiling panel, cell-based, JC-1 fluorescence, 24 h, 100 nL compound (AID 1169); also: test concentration not given here
Conditions: RPMI8226 myeloma, JC-1 mitochondrial potential fluorescence, higher = more signal
Rule: z-score of -0.5 or more gives true (1); anything lower gives false (0).

Reference set, count: 5
Q) Answer whether z-score of "COCCOC(=O)N1C(=O)[C@@]2(c3cc(C#CC4=CCCCC4)ccc31)[C@H](C(=O)N1CCN(c3ncccn3)CC1)[C@H]1C(=O)O[C@H](c3ccccc3)[C@H](c3ccccc3)N1[C@@H]2c1ccc(O)cc1" is greater than or equal to -0.5.
A) true (1)

Q) Answer whether z-score of CC=CC(O)C1C=CC2C(=O)N(C)C(=O)C2N1N1CCCCC1 (stereo unspecified) is greater than or equal to -0.5.
A) false (0)

Q) Answer whether z-score of "CC(C)(C)OC(=O)CC[C@]1(C(=O)O)N=C(c2ccc(OCCCO)cc2)O[C@H]1c1ccccc1CN=[N+]=[N-]" is greater than or equal to -0.5.
A) false (0)

Q) Answer whether z-score of "COCCOC(=O)N1C(=O)[C@@]2(c3cc(C#CC4=CCCCC4)ccc31)[C@H](c1ccc(O)cc1)N1[C@H](c3ccccc3)[C@H](c3ccccc3)OC(=O)[C@H]1[C@@H]2C(=O)Nc1nc2ccccc2s1" is greater than or equal to -0.5.
A) false (0)

Q) Answer whether z-score of "CCCC[C@@H]1C[C@H]1[C@@H](NC(=O)c1cccnc1)c1ccc(-c2ccccc2)cc1" is greater than or equal to -0.5.
A) false (0)

More entries:
Q) Answer whether z-score of CC(=O)n1cc(C(O)C2C=CC3C(=O)N(Cc4ccccc4)C(=O)C3N2n2cnnc2)c2ccccc21 (stereo unspecified) is greater than or equal to -0.5.
A) true (1)

Q) Answer whether z-score of "COCCCNC(=O)[C@]1(Cc2ccccc2N=[N+]=[N-])N=C(c2ccc(OCCCO)cc2)O[C@@H]1c1ccccc1N=[N+]=[N-]" is greater than or equal to -0.5.
A) false (0)

Q) Answer whether z-score of "NC(=O)NCC#Cc1ccc2c(c1)[C@]1(C(=O)N2)[C@H](C(=O)O)[C@H]2C(=O)O[C@H](c3ccccc3)[C@H](c3ccccc3)N2[C@@H]1c1ccccc1OCCO" is greater than or equal to -0.5.
A) true (1)

* * *

Assay: CREB reporter modulators without forskolin, primary screen, cell-based, PC12, CRE-LacZ reporter, unstimulated (AID 1145)
Conditions: no forskolin, luminescence, 4.5 h, higher = more signal, called active from +8 up or from −8 down
The source made the active and inactive calls.
MEASUREMENT_KIND: z-score

Example molecules with recorded z-score:
Q) Would you kindly share the measured z-score for COc1ccc(C(O)C2C=CC3C(=O)N(Cc4ccccc4)C(=O)C3N2n2cnnc2)c2ccccc12 (stereo not given) ?
A) -0.126 (inactive)

Q) Would you kindly share the measured z-score for "COCCOC(=O)N1C(=O)[C@@]2(c3cc(C#Cc4ccc(OC)cc4)ccc31)[C@H](C(=O)NC[C@H](O)c1ccccc1)[C@H]1C(=O)O[C@H](c3ccccc3)[C@H](c3ccccc3)N1[C@@H]2c1ccc(O)cc1" ?
A) -1.01 (inactive)

Q) Would you kindly share the measured z-score for COC(=O)C1(Cc2ccccc2)C=C2C(=C(C(C)C)C(=O)C2C)CN1 (stereo not given) ?
A) 0.59 (inactive)

Q) Would you kindly share the measured z-score for "COc1ccccc1CN1C(=O)c2ccccc2[C@](Cc2ccccc2I)(C(=O)NC(C)C)[C@@H]1c1ccc(CO)cc1" ?
A) -0.0243 (inactive)

Q) Would you kindly share the measured z-score for "COCCCNC(=O)[C@@]1(Sc2ccc(C)cc2)CC(=O)N(C2Cc3ccccc3C2)[C@@H]1c1ccc(CO)cc1I" ?
A) 0.0909 (inactive)

Q) Would you kindly share the measured z-score for "O=C1O[C@@H](c2ccccc2)[C@@H](c2ccccc2)N2[C@@H](c3ccc(O)cc3)[C@]3(C(=O)Nc4ccc(C#CC5=CCCCC5)cc43)[C@@H](C(=O)N3CCN(c4ncccn4)CC3)[C@H]12" ?
A) -1.14 (inactive)

More entries:
Q) Would you kindly share the measured z-score for "C=CC[C@@]1(C(=O)N2CCCCC2)N=C(c2ccc(OCCCO)cc2)O[C@@H]1c1ccccc1" ?
A) 1.5 (inactive)

Q) Would you kindly share the measured z-score for CC[C@@H]1[C@H]2C3C(=O)N(CC)C(=O)C3CC(=O)[C@H]2[C@H](c2ccc(C)cc2)N1S(=O)(=O)c1ccc(C)cc1 (stereo not given in full) ?
A) -0.77 (inactive)

Q) Would you kindly share the measured z-score for "NC(N)=NCc1cn(CCc2c[nH]c3ccccc23)nn1" ?
A) -0.0989 (inactive)

Q) Would you kindly share the measured z-score for "COC(=O)[C@@]1(Cc2ccccc2)[C@H]2c3cc(C(=O)N4CCCC4)n(Cc4ccsc4Br)c3C[C@H]2CN1C(=O)c1ccccc1" ?
A) 0.201 (inactive)

Q) Would you kindly share the measured z-score for CCOc1cc(C(O)C2C=CC3C(=O)N(C)C(=O)C3N2N2CCCCC2)ccc1O (stereo not given) ?
A) 0.433 (inactive)

Q) Would you kindly share the measured z-score for "CC(C)(C)OC(=O)CC[C@]1(C(=O)NCCN2CCOCC2)N=C(c2ccc(OCCCO)cc2)O[C@H]1c1ccccc1" ?
A) -0.174 (inactive)

Q) Would you kindly share the measured z-score for "CC(C)(C)OC(=O)CC[C@@]1(C(=O)O)N=C(c2ccc(OCCCO)cc2)O[C@@H]1c1ccccc1CN=[N+]=[N-]" ?
A) -0.128 (inactive)

Q) Would you kindly share the measured z-score for "COCCOC(=O)N1C(=O)[C@@]2(c3cc(C#CCC(C(=O)OC)C(=O)OC)ccc31)[C@H](c1ccc(OCCO)cc1)N1[C@H](c3ccccc3)[C@H](c3ccccc3)OC(=O)[C@H]1[C@@H]2C(=O)N1CCN(c2ncccn2)CC1" ?
A) -1.42 (inactive)

Q) Would you kindly share the measured z-score for "Cc1ccc(S[C@]2(C(=O)NC(C)C)CC(=O)N(C3Cc4ccccc4C3)[C@@H]2c2ccc(CO)cc2I)cc1" ?
A) 0.622 (inactive)
